Reference source for all entries: ChEMBL document CHEMBL1130069

# Lookup of reported pIC50 keyed by entry
- system under test: Polyunsaturated fatty acid 5-lipoxygenase (Homo sapiens)
- Sequence (P09917 whole entry): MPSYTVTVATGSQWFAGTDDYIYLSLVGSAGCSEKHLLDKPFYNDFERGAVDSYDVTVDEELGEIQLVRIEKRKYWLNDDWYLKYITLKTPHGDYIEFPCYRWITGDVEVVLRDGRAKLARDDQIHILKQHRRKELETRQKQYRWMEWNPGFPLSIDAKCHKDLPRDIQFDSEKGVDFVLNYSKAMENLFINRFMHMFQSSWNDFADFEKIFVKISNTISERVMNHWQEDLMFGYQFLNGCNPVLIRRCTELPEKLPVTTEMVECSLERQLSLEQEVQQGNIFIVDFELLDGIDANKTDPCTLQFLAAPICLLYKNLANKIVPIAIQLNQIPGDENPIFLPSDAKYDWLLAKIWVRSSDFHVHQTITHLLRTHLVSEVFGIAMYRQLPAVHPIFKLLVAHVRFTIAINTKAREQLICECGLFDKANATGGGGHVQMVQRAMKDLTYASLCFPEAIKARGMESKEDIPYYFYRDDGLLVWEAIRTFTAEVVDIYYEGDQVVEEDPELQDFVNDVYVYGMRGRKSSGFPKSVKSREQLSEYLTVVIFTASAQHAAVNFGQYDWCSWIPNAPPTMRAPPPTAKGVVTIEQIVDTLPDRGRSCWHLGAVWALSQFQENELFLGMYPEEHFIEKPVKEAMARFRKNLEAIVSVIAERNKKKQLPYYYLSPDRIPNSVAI
- method summary: Inhibition of 5-lipoxygenase (5-LO) measured as LTB4 production in human whole blood stimulated with calcium ionophore (A23187).
Scale: negative log10 of molar concentration, which is what pIC50 denotes.

compound	result number
CC(c1csc2ccccc12)N(O)C(N)=O (stereo unspecified)	5.49
NC(=O)N(O)C/C=C/c1ccc(-c2ccccc2)o1	6.92

Given the entry NC(=O)N(O)CC1CC1 , report its measured pIC50.
6.00

What pIC50 value was documented for this compound, CC(c1ccc(-c2ccccn2)o1)N(O)C(N)=O (stereo unspecified) ?
5.47

If you can, please state the reported pIC50 value of CC(c1cc2ccsc2s1)N(O)C(N)=O (stereo unspecified) .
5.92

// returns reported pIC50 for input NC(=O)N(O)CC1CC1c1cccc(Oc2ccccc2)c1 (stereo unspecified)
6.82
